Answer each item with its documented pKi.
- target desc: human adenosine A2A receptor (Homo sapiens, UniProt P29274)
- Construct: expressed in transfected cells; host or cells: CHO cells, Semliki Forest virus expression system; membrane preparation
- Sequence (P29274 whole entry): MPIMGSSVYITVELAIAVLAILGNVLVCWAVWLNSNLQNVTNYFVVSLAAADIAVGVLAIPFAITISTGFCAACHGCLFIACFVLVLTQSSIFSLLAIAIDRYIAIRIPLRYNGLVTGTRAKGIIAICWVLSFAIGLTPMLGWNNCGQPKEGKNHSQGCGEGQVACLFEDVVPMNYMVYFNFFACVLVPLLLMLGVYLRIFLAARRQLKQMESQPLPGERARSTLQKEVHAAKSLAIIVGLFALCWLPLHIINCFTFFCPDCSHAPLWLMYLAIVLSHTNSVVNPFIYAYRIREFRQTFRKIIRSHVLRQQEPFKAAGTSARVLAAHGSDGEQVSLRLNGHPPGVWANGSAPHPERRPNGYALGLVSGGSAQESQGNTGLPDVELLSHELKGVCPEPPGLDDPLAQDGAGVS
- measurement protocol: Human adenosine A2A receptor [3H]-SCH-58261 binding assay
- study conditions: recombinant human A2A in CHO cell membranes, [3H]-SCH-58261, Cheng-Prussoff; read-out: Ki hA2A
One number for each entry, as −log10 of the molar value.

Example cases with answers are listed next.
1) COCCN(C)C(=O)c1cc(N)n2nc(-c3ccc(Br)o3)nc2c1 [Example 395]; 8.17
2) CCN(CCOC)C(=O)c1cc(N)n2nc(-c3ccc(Br)o3)nc2c1 [Example 396]; 8.46
3) COCCN(C)C(=O)c1cc(N)n2nc(-c3nccs3)nc2c1 [Example 397]; 6.53
4) CCN(CCOC)C(=O)c1cc(N)n2nc(-c3nccs3)nc2c1 [Example 498]; 6.72

Give me pKi for each of these compounds, listed below.
1. CC1CCCN1C(=O)c1cc(N)n2nc(-c3ccccn3)nc2c1 (centres unmarked) [Example 413]
2. C#CCN(C)C(=O)c1cc(N)n2nc(-c3ccccn3)nc2c1 [Example 407]
3. NC(=O)[C@@H]1CCCN1C(=O)c1cc(N)n2nc(-c3ccc(Br)o3)nc2c1 [Example 388]
4. CCC1CCC(C)N(C(=O)c2cc(N)n3nc(-c4nccs4)nc3c2)C1 (centres unmarked) [Example 404]
5. CCN(C(=O)c1cc(N)n2nc(-c3ccccn3)nc2c1)C(C)C [Example 414]
6. COC[C@@H]1CCCN1C(=O)c1cc(N)n2nc(-c3nccs3)nc2c1 [Example 400]

Response given:
7.42
7.16
7.57
7.03
7.25
7.08

Give me pKi for each of these compounds, listed below.
1. COC[C@H]1CCCN1C(=O)c1cc(N)n2nc(-c3nccs3)nc2c1 [Example 401]
2. CCCN(CC1CC1)C(=O)c1cc(N)n2nc(-c3ccccn3)nc2c1 [Example 424]
3. Nc1cc(C(=O)N2CCCC3CCCCC32)cc2nc(-c3nccs3)nn12 (centres unmarked) [Example 379]
4. Nc1cc(C(=O)N(Cc2ccccc2)Cc2ccccc2)cc2nc(-c3ccccn3)nn12 [Example 435]
5. CC(=O)NC1CCN(C(=O)c2cc(N)n3nc(-c4ccc(Br)o4)nc3c2)C1 (centres unmarked) [Example 391]

Response given:
[7.28, 7.30, 7.47, 8.19, 7.28]

Give me pKi for each of these compounds, listed below.
1. C=CCN(C(=O)c1cc(N)n2nc(-c3nccs3)nc2c1)C1CCCC1 [Example 382]
2. C=CCN(C)C(=O)c1cc(N)n2nc(-c3ccccn3)nc2c1 [Example 409]
3. CCN(CC)C(=O)C1CCCN(C(=O)c2cc(N)n3nc(-c4nccs4)nc3c2)C1 (centres unmarked) [Example 381]

Response given:
7.26
7.00
6.75

Give me pKi for each of these compounds, listed below.
1. C=CCN(CC=C)C(=O)c1cc(N)n2nc(-c3ccccn3)nc2c1 [Example 416]
2. Nc1cc(C(=O)N2CC=CC2)cc2nc(-c3ccccn3)nn12 [Example 408]

Response given:
[7.32, 7.04]
